Tested on: SNB-19
test: NCI tumour cell line growth inhibition, 48 h
Active and inactive are the calls of the source. Rule as the data show it: active = GI50 up to about 1.1 µM and inactive = higher.
Answer with one of the outcomes given here: Y (active), N (inactive)

CC1=NN(C(=O)c2ccccc2)C(=O)C1/N=N/c1ccccc1C(=O)O (centres undefined): N
Nc1ccc(S2(c3ccc(N)cc3)C=C(c3ccccc3)C(c3ccccc3)=C2)cc1: N
Cc1cc(S(=O)(=O)[N-]/C(=N/S(=O)(=O)c2ccc(Cl)cc2)[n+]2ccc(N(C)C)cc2)c(SCC(=O)O)cc1Cl: N
CC(C)(C)C(=C[S+]([O-])/N=C/c1ccccc1)C(C)(C)C (centres undefined): N
COc1ccc(/N=C\c2ccc(N(CCC#N)CCC#N)cc2)cc1: N

Any idea what this test logged for "CC1=C(C(=O)Nc2cccc(C(F)(F)F)c2)C(c2ccccc2F)C(C(=O)Nc2cccc(C(F)(F)F)c2)=C(C)N1" ?
N

Any idea what this test logged for CC(=O)OCC1OC(c2nc3ccccc3s2)=CC(OC(C)=O)C1OC(C)=O (centres undefined) ?
N

Any idea what this test logged for CC(=O)Nc1ccc2c3c(cc(O)c2c1)N(C(=O)CCCCCCC(=O)Nc1ccc2c4c(cc(O)c2c1)N(C(=O)OC(C)(C)C)CC4CCl)CC3CCl (centres undefined) ?
Y

Any idea what this test logged for "CC(C)(CO)CNc1nc(N)nc(Cl)c1N" ?
N

====

Test system: SK-OV-3
test: NCI tumour cell line growth inhibition, 48 h
Activity calls are given as the source filed them. Rule as the data show it: active = GI50 up to about 1.1 µM and inactive = higher.
measured_endpoint: GI50

Would you please look over these solved cases?
O=C(N/N=C/c1cc(-c2ccccc2Cl)c(-c2ccccc2Cl)o1)c1ccncc1: > 100 µM (inactive)
CN(C)Cc1ccc(-c2cc3onc(-c4ccccc4)c3c(=O)n2C)cc1: 48.8 µM (inactive)
COc1c(C(=O)/C(=N/Nc2ccccc2)C(C)=O)c(O)c(OC)c2occc12: 65.2 µM (inactive)

Quick check: GI50 of "Cc1cc(C)n(CN(Cn2nc(C)cc2C)c2ccccc2)n1" ?
40.9 µM (inactive)

Quick check: GI50 of "O=C(/C=C/c1ccc(F)c(F)c1)OCCc1ccccc1" ?
> 100 µM (inactive)

Quick check: GI50 of COC(=O)C1=C(C(=O)OC)c2cc(OC)ccc2C(C(=S)N(C)C)S1 (stereo unspecified) ?
> 100 µM (inactive)

====

System: SK-MEL-5
test: NCI tumour cell line growth inhibition, 48 h
The source made the active and inactive calls. Rule as the data show it: active = GI50 up to about 1.1 µM and inactive = higher.
Let's look at some compounds and their measured GI50.

Would you please look over these solved cases?
Cc1ccccc1-n1c(N)c(-c2nc3ccccc3[nH]2)sc1=S: 20.8 µM (inactive)
Oc1ncnc2c1CCCN2: > 100 µM (inactive)
CC(=O)Nc1ccc(C2CC(c3ccc([N+](=O)[O-])cc3)=Nc3ccccc3[S+]2[O-])cc1 (stereo not given): 19.6 µM (inactive)
CC(C)CCCC(C)[C@H]1CCC2[C@@H]3CCC4Cc5nc6c(nc5C[C@]4(C)C3CC[C@@]21C)CC1CC[C@@H]2C(C[C@@H](O)[C@@]3(C)C2C[C@@H]2OC4(CCC(C)CO4)C(C)[C@@H]23)[C@@]1(C)C6 (stereo not given in full): > 100 µM (inactive)
Nc1ccccc1/N=N/c1c(S(=O)(=O)O)cc2cc(S(=O)(=O)O)cc(O)c2c1O: > 100 µM (inactive)

Quick check: GI50 of "COc1ccc(Nc2nnc(CCCCCCCCc3nnc(Nc4ccc(OC)cc4)o3)o2)cc1" ?
> 100 µM (inactive)

Quick check: GI50 of "O=c1[nH]c(Cc2ccccc2)nc2c1sc1nc3ccccc3n12" ?
> 100 µM (inactive)

Quick check: GI50 of "C/C(=N\NC(=O)c1ccncc1)c1cccc(C(F)(F)F)c1" ?
> 10 µM (inactive)

Quick check: GI50 of "Cc1cc(C)n(CN(CCCCO)Cn2nc(C)cc2C)n1" ?
34.1 µM (inactive)

Quick check: GI50 of "C=CNC(=S)n1nc(-c2ccccc2NC(=O)C(F)(F)F)c(=O)n(C(=S)NC=C)c1=S" ?
13.3 µM (inactive)

src = ChEMBL document CHEMBL1201862
